Experiment: in vivo
Conditions: iv
quantity name: AUC (ng·h/mL)
Quick reminder: number only, in ng·h/mL, skip the unit.

Problem: # query: AUC of entry `CCCc1nc2c(C)cc(-c3nc4ccccc4n3C)cc2n1Cc1ccc(-c2ccccc2C(=O)O)cc1`
Solution: 385
